assay: xn = mol fraction of the nth substance listed, in the solute-free solvent; settings: 283.15 K; x2 = 0.4117
readout-kind: solubility (g/100 g solution)

[
  {
    "compound": "Nc1nccnc1Cl + CC(C)O + O",
    "recorded-number": 0.459
  },
  {
    "compound": "Nc1cccc(S(=O)(=O)c2cccc(N)c2)c1 + CC(C)O + O",
    "recorded-number": 0.398
  },
  {
    "compound": "c1ccc2[nH]c(-c3cscn3)nc2c1 + CCCO + O",
    "recorded-number": 0.291
  },
  {
    "compound": "CN1CCN(C2=Nc3cc(Cl)ccc3Nc3ccccc32)CC1 + CC(C)O + O",
    "recorded-number": 0.667
  }
]

I: c1ccc2[nH]c(-c3cscn3)nc2c1 + CC(C)O + O
II: Cc1[nH]c(=O)c(C#N)cc1-c1ccncc1 + CC(C)O + O
Query string: Hi there, can you help? I need to know whether I or II has lower measured solubility (g/100 g solution). // caller expects the label of the chosen entry
Result string: II
